Provenance of the data: the RNAGym collection of RNA variant scans (doi:10.7554/elife.90254)

This section presents variants with their documented self-cleavage values.
B1: LINE1-mini (parent)
chain: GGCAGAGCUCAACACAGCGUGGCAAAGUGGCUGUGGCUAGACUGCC

Variants of: B1
Assay: self-cleavage, relative activity (ratio to wild type); higher = more cleavage; in vitro, sequencing; the parent is a self-cleaving ribozyme
Give a plain numeric answer without units written out.

Take a look at these entries with their results.
{"columns": ["Mutation annotation", "Val"],
 "data": [
  ["A25C U43A", 0.09],
  ["A39C G40U", 0.11],
  ["A14G U38G", 0.01],
  ["G21C G30C", 1.62],
  ["C10A A24U", 0.05]
]}

Problem: self-cleavage lookup needed for U9G G21U , thanks.
Result: 0.06

Problem: Would you kindly share the measured self-cleavage for G35C C37G ?
Result: 0.09

Problem: Suppose we examine the variant C10U C31G ; what self-cleavage value has been reported?
Result: 0.05

Problem: Requested read-out: self-cleavage. Entry: G19C G40C
Result: 0.06

Problem: What value of self-cleavage has been recorded for this entry: C3A G33A
Result: 0.37

Problem: What value of measured self-cleavage is listed for U34C G35C ?
Result: 0.06

Problem: State the recorded self-cleavage for this entry: G2U C10U
Result: 0.03

Problem: // query self-cleavage value for entry G1U C13A
Result: 0.05

Problem: Find the recorded self-cleavage belonging to G1U C18U and report it.
Result: 0.51

Problem: # lookup: self-cleavage of A6C G21A
Result: 1.34

Problem: Look up self-cleavage: C15G U28C
Result: 0.04

Problem: // query self-cleavage value for entry G19A C46U
Result: 1.74

Problem: What does the record list as self-cleavage for C3G A6G ?
Result: 0.08

Problem: What does the data say about its self-cleavage? Entry: C3G A25C
Result: 0.18

Problem: Data request, read-out self-cleavage, for C23G U34C
Result: 0.32

Problem: I would be grateful if you could share the reported self-cleavage for G21A C46A .
Result: 1.96
